B1: H2-Kb / H6 (parent)
chain 1: AQKVTQTQTSISVMEKTTVTMDCVYETQDSSYFLFWYKQTASGEIVFLIRQDSYKKENATVGHYSLNFQKPKSSIGLIITATQIEDSAVYFCAMRDYNQGKLIFGQGTKLSIKP
chain 2: EAAVTQSPRSKVAVTGGKVTLSCHQTNNHDYMYWYRQDTGHGLRLIHYSYVADSTEKGDIPDGYKASRPSQENFSLILELASLSQTAVYFCASSGTAANSDYTFGSGTRLLVI
chain 3: not shown
chain 4: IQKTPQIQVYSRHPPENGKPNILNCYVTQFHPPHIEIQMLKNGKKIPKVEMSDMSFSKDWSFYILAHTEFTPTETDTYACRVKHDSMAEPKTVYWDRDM
chain 5: SIINFEKL

- Variants of: B1
- experimentalDetails: % of reporter cells activated (NFAT-GFP), raw; note: test concentration or dose not given here
- assayConditions: with H6; scale: % of reporter cells activated
propertyMeasured: ratio to parent
Number only, no unit.

Exercise: I am curious: what ratio to parent value has been reported for chain 5 S1M ?
Solution: 0.536

Exercise: I am curious: what ratio to parent value has been reported for chain 5 I2R ?
Solution: 0.281

Exercise: I am curious: what ratio to parent value has been reported for chain 5 K7N ?
Solution: 0.0979

Exercise: I am curious: what ratio to parent value has been reported for chain 5 I3N ?
Solution: 1.09

Exercise: I am curious: what ratio to parent value has been reported for chain 5 E6N ?
Solution: 0.102
